System: 3-pTza peptide (Biotin-AminocaproicAcid-A.G.A.G.3-pTza.A.G.A.G)
Test details: BLI; biotinylated peptide captured on streptavidin biosensors at 20 nM; IgG in solution at 20-200 nM; Octet HTX; 1x HBS-T, 1% BSA
Reported kon values follow for various binders

{"columns": ["Binder", "Reading unit", "kon"],
 "data": [
  ["hSC44.13 IgG (antibody, V domains shown) VH: EVQLVESGGGLVQPGGSLRLSCTASGFSIDSYGFSWVRQAPGKGLEHIGYLTAGGRAFYASWAKSRSTITRNTNENTVTLKMNSLRAEDTAVYYCAKLGTGSPVAIWG VL: DIQMTQSPSSLSASVGDRVTITCRASQSVWRNKNVAWYQQKPGKAPKRLIYAIASLYSGVPSRFSGSGSGTDFTLTISSLQPEDFATYYCVGHYGSENDAYYAFGQGTKVEIK", "M⁻¹ s⁻¹", 182000],
  ["hSC44.8 IgG (antibody, V domains shown) VH: EVQLVESGGGLVQPGGSLRLSCTASGFSIDSYGFSWVRQAPGKGLEHIGYLTAGGRAFYASWAKSRSTITRNTNENTVTLKMNSLRAEDTAVYYCAKIGTGSRVAIWG VL: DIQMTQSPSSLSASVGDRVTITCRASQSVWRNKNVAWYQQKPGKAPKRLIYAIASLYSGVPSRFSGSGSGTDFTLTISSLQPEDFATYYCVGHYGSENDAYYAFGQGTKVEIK", "M⁻¹ s⁻¹", 359000],
  ["hSC44.22 IgG (antibody, V domains shown) VH: EVQLVESGGGLVQPGGSLRLSCTASGFSIDSYGFSWVRQAPGKGLEHIGYLTAGGRAFYASWAKSRSTITRNTNENTVTLKMNSLRAEDTAVYYCAKLGTGTPVAIWG VL: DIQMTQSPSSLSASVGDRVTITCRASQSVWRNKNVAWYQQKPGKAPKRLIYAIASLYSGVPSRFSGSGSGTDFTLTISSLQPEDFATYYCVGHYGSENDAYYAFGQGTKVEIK", "M⁻¹ s⁻¹", 90600]
]}
